Cited source: ChEMBL document CHEMBL5291721

- study target: D(3) dopamine receptor (Homo sapiens, UniProt P35462); note: assay procedure not described here
- Sequence (P35462 whole entry): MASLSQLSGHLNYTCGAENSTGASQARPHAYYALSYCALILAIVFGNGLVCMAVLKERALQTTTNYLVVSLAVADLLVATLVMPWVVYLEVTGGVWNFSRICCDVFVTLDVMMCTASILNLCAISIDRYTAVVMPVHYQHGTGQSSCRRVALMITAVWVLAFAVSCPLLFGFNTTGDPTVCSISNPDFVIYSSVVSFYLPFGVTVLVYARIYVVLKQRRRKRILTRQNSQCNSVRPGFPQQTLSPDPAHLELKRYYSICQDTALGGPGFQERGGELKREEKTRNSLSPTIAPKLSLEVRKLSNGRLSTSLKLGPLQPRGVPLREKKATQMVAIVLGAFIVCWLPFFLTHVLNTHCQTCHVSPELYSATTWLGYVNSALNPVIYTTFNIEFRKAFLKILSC
As shown below, each of these compounds has a reported AC50 value.

Examples from the recorded data:
compound: COc1ccc(-c2cc(=O)c3c(O)cc(O[C@@H]4O[C@H](CO[C@@H]5O[C@@H](C)[C@H](O)[C@@H](O)[C@H]5O)[C@@H](O)[C@H](O)[C@H]4O)cc3o2)cc1O [DIOSMIN]
AC50: > 30 µM
--
compound: Sc1ncnc2nc[nH]c12 [MERCAPTOPURINE ANHYDROUS]
AC50: > 30 µM
--
compound: Nc1nc(-n2cc(C(=O)O)c(=O)c3cc(F)c(N4CC(O)C4)c(Cl)c32)c(F)cc1F [DELAFLOXACIN]
AC50: > 30 µM

### Prompt I have this compound here, Nc1nc2c(ncn2CCC(CO)CO)c(=O)[nH]1 [PENCICLOVIR] , and I need its recorded AC50.
### Response > 30 µM

### Prompt Okay, and Nc1ccc(C(=O)O)cc1 [AMINOBENZOIC ACID] ?
### Response > 30 µM

### Prompt Okay, and CN1CCN(C(c2ccccc2)c2ccccc2)CC1 [CYCLIZINE] ?
### Response 2.21 µM

### Prompt Okay, and NC(=O)c1cnccn1 [PYRAZINAMIDE] ?
### Response > 30 µM

### Prompt Okay, and CCN(CC)CCNc1ccc(C)c2sc3ccccc3c(=O)c12 [LUCANTHONE] ?
### Response 0.91 µM

### Prompt Okay, and CC(O)CO (stereo not drawn) [PROPYLENE GLYCOL] ?
### Response > 30 µM

### Prompt Okay, and CC(=O)OC[C@H]1O[C@@H](n2ccc(=O)[nH]c2=O)[C@H](OC(C)=O)[C@@H]1OC(C)=O [URIDINE TRIACETATE] ?
### Response > 30 µM
